# assayed.target: Serine/threonine-protein kinase PLK1 (Homo sapiens)
# measurement.protocol: qHTS for Inhibitors of PLK1-PDB (polo-like kinase 1 - polo-box domain): Primary Screen; further: potency means the concentration at half of the fitted maximal effect; nearly all actives have a fitted effect of over 65% in size
# condition.details: Plk1 PBD binding of FITC phosphopeptide, fluorescence polarization
# Description: The polo-like kinase 1 (Plk1) is a member of a conserved subfamily of serine / threonine protein kinases that plays a pivotal roles in cell proliferation. It has a C-terminal non-catalytic region called the polo-box domain (PBD) that plays a crucial role in the subcellular localization of the Plk1. […] This project employed a fluorescence polarization (FP) assay using a FITC-conjugated phospho-9-mer (p-9-mer) peptide and purified human Plk1 PBD protein. […]
About 10,000 (2.8%) of roughly 360,000 compounds were called active. Roughly 4% stayed inconclusive and do not appear here. Shown is part of a subset that was picked to be rich in actives.
measurement.name: Potency

Cc1ccc(C(=O)N2CCCCCC2)cc1Br | 26.7 µM (active)
N#Cc1c(-c2ccccc2)nc(SCc2ccc([N+](=O)[O-])cc2)[nH]c1=O | 26.7 µM (active)
Cc1cccc(NC(=O)CN2CCCN(S(=O)(=O)c3ccc(Br)s3)CC2)c1 | 21.2 µM (active)

Now turn to the next compound.
// query Would you kindly share the measured Potency for CCc1nnc(NS(=O)(=O)c2ccc(NC(=S)NC(=O)c3cccs3)cc2)s1 ?
// result 18.9 µM (active)
